Origin of the recorded values: ChEMBL document CHEMBL4665812

Give pIC50 for every item shown.
molecular target: Receptor tyrosine-protein kinase erbB-2 (Homo sapiens); test: Inhibition of C-terminal His6-tagged HER2 (703 to 1029 residues) (unknown origin) expressed in Sf9 insect cells using TK as substrate preincubated for 30 mins followed by substrate addition and measured after 60 mins in presence of XL665-labeled streptavidin by HTRF assay
Sequence (P04626 whole entry, the tested form may be a part): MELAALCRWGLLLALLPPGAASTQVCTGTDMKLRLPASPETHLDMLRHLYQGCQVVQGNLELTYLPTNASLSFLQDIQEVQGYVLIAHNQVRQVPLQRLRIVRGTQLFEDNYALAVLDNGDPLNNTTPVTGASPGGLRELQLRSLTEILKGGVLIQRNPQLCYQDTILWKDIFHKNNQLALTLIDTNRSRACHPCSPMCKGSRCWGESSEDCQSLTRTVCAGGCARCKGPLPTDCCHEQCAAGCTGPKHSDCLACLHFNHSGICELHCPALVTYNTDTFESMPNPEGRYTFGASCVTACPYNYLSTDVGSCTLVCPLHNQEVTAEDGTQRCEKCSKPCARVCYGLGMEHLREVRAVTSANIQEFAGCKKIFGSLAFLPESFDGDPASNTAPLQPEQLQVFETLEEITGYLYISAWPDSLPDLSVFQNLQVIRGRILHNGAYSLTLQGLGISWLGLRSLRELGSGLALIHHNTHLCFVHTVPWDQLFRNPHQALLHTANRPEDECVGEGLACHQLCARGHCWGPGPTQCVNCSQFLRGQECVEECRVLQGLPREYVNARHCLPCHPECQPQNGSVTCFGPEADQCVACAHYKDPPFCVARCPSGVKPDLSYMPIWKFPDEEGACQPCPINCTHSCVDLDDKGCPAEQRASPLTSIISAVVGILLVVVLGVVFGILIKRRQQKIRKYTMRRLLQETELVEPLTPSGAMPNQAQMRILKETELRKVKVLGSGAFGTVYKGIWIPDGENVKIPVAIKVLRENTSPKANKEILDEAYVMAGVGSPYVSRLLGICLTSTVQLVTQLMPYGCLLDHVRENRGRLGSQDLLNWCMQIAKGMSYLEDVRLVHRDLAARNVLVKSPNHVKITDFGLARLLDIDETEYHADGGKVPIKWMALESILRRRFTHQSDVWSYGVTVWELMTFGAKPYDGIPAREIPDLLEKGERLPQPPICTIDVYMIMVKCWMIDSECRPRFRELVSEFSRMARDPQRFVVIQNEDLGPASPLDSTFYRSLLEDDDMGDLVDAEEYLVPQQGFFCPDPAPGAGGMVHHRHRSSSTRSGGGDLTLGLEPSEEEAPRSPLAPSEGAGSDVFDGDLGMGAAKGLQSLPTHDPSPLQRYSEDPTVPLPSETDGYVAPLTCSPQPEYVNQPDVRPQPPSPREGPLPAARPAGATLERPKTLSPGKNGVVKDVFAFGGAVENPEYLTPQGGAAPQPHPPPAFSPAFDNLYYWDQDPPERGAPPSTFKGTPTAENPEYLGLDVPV
// returns pIC50 (minus log10 of molar concentration), number only

Record summary for C=CC(=O)Nc1cccc(-c2c(-c3ccc(N4CCN(C)CC4)cc3)[nH]c3ncnc(Nc4ccc(OCc5ccccn5)c(Cl)c4)c23)c1 : reported pIC50 = 7.85

pIC50 recorded for this compound, C=CC(=O)Nc1cccc(-c2c(-c3ccc(N4CCN(C)CC4)cc3)[nH]c3ncn(CC(C)C)c(=O)c23)c1 , is 6.49

The compound listed as C=CC(=O)N1CCC(Oc2cc3c(Nc4ccc(Cl)c(Cl)c4F)ncnc3cc2OC)CC1 [POZIOTINIB] shows pIC50 equal to 7.92

Entry under test: C=CC(=O)Nc1cc(-c2c[nH]c3ncnc(Nc4ccc(OCc5ccccn5)c(Cl)c4)c23)ccc1OCCO . Its pIC50 was 8.72

Lookup result for C=CC(=O)Nc1cccc(-c2c[nH]c3ncnc(Nc4ccc(OCc5cccc(F)c5)c(Cl)c4)c23)c1 ; measured pIC50: 7.85

compound C=CC(=O)Nc1cccc(-c2c[nH]c3ncnc(Nc4ccc5c(ccn5Cc5ccccc5)c4)c23)c1 , pIC50 observed: 8.10
